Where these numbers come from: patent US20240360165A1

Measured pIC50 by item
- assay target: CDK12 (aa686-1082)/Cyclin K complex (Homo sapiens)
- Construct: CDK12 (aa686-1082)/Cyclin K complex
- Sequence (Q9NYV4 686-1082, species assumed): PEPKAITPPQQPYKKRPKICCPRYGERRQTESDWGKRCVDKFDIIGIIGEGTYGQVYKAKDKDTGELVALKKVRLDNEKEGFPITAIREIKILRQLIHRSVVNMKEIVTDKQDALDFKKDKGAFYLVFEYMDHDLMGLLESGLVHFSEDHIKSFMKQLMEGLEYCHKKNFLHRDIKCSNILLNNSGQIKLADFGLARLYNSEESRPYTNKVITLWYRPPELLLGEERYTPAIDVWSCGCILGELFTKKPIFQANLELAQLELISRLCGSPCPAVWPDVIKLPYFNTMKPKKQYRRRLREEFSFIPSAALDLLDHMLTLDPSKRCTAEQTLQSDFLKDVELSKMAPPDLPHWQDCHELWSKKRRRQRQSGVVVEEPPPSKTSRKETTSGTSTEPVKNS
- Sequence (O75909 whole entry partner, species assumed, the tested form may be a part): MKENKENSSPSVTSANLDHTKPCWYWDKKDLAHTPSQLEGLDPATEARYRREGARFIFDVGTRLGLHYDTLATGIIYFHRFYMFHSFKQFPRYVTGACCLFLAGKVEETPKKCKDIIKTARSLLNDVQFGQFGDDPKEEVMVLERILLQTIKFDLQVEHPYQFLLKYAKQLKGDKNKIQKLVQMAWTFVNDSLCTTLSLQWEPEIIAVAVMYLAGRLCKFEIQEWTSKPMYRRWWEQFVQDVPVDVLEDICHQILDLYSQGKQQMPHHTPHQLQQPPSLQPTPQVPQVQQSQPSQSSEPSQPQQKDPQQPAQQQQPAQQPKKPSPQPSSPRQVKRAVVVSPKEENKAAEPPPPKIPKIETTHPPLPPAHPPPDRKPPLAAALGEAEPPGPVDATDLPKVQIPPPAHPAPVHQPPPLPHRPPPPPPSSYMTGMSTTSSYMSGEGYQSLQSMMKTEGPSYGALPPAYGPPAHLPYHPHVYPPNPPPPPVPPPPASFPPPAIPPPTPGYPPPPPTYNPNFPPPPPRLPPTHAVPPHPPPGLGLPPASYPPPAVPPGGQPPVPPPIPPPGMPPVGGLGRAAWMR
- run description: CDK12 inhibition assay (Caliper/LabChip EZ Reader kinase assay)
- Type: biochemical
- conditions: Table 1; CDK12 (aa686-1082)/Cyclin K 50 nM, ATP 2 mM, 3 hr at 27° C.
pIC50: −log10 of the molar value.

| compound | pIC50 |
| --- | --- |
| FC(F)(F)c1cnc(N[C@H]2CCC3(CC3)NC2)nc1-c1c[nH]c2ccccc12 [Compound 212] | 5.30 to 6.70 |
| Cn1cc(-c2nc(NC3CCCNC3)ncc2C(F)(F)F)c2ccc(C#N)nc21 (stereo not shown) [Compound 273] | < 5.30 |
| CC1(C)CCNC[C@@H]1Nc1ncc(C(F)(F)F)c(-c2c[nH]c3ccccc23)n1 (single isomer, unassigned) [Compound 209] | < 5.30 |
| Cc1ccncc1-c1ccc2c(-c3nc(NC4CCCNC4)ncc3C(F)(F)F)c[nH]c2c1 (stereo not shown) [Compound 336] | 5.30 to 6.70 |
| CN1CCC[C@H](Nc2ncc(Cl)c(-c3c[nH]c4ccccc34)n2)C1 [Compound 136] | 5.30 to 6.70 |
| CN1CCN(c2cccc3c(-c4nc(N[C@H]5CCCNC5)ncc4C(F)(F)F)c[nH]c23)C1=O [Compound 176] | 5.30 to 6.70 |
| COc1cnc(N[C@H]2CCCNC2)nc1-c1c[nH]c2ccccc12 [Compound 189] | < 5.30 |
| CCc1cnc(N[C@H]2CCCNC2)nc1-c1c[nH]c2c(F)c(C#N)ccc12 [Compound 360] | < 5.30 |
| O[C@H]1CNC[C@@H](Nc2ncc(C(F)(F)F)c(-c3c[nH]c4ccccc34)n2)C1 [Compound 203] | 5.30 to 6.70 |
| Cn1cc(-c2ccc3c(-c4nc(N[C@H]5CCCNC5)ncc4C(F)(F)F)c[nH]c3c2)c2cnc(C(F)(F)F)cc21 [Compound 320] | 5.30 to 6.70 |
